Assign PBM binding z-score to each entry below.
Test system: LXRa homodimer (NR concentration 270 nM)
protocolSummary: PBM binding z-score (relative to random genomic background probes); higher = stronger binding; sequences stand for … in GC…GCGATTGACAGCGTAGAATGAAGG
One number for each entry.

TCTATTAGTTGAAGGGCAACTGACGAGTCCGTTT: 0.328
CGTCCAAGGTCAGAGAGGTCAGCGAATGCCGAGT: 3.27
AGTCAAAGTTCAACTAGGTAACGTAAGATATGCT: 4.88

List PBM binding z-score for every entry below, keeping the order given.
1. TAGCCTAGGTCATGTGGGCCAGTATAGTGTCGGC
2. TCTGCTAGGTCAGTTGGTCTGCTAACGAGCTGCC
3. TCTATGAGTTGATTAGGGCAACCGAAACAGCGGA

0.553
-0.897
-0.0686

List PBM binding z-score for every entry below, keeping the order given.
1. TTGAGTAGGTTAGGGGCATTCAGAATGGCGTCGA
2. ATATGTAGGTTAGCTGGGGTCAGTCAGACTAGGC
3. ATATGTAGGTTAGCTGGGGTCACTCAGACTAGGC
4. CCGAGTACGTTATGGGGCATTCAGGCAACGGTGA
5. CCAGGCAGGTGAGAAGGTAACTCAGCCTCGATTA
6. GCATATAGGGAATACAAGGTGAAAGTCCGATTGT

[0.331, 0.893, 1.4, -0.712, -0.49, -0.101]

List PBM binding z-score for every entry below, keeping the order given.
1. CAAACTAGGTCAAAGGTCACAGTCGAGCCAACCA
2. TCGAGTATGTTAGGGGCATTCAGAATGGCGTCGA
3. GTACCAAGGTGAATAGGTCGTTCATGAGTAGGCG
4. TAGCCTAGGTCCTGGGCCAGTATACCACGCGAAC
5. TCTTGTTGATCAAGCAGGTTAAGAAAGCCTGAGT
6. TCTTGTAGATCAAAGGTTAAGCAAGCCGAAGCCT
7. GCTGCTAGGTCAACTGATGGTCAGCTCAAGCTCG

[4.49, -0.264, 0.137, -0.796, -0.00348, 0.224, 0.195]

// provenance: the supplement of paper PMC6555819
